Values from patent US6355799B1

# Test system: field corn (Zea mays L., var. Dekalb 535, CORN)
# TEST_METHOD_NOTES: Pre-emerge test, crop safety
# Assay type: in vivo
# ASSAY_CONDITIONS: 250 g ai/ha; rated 14 days after application; 0 = no damage, 100 = complete death
EXPERIMENTAL_ENDPOINT: Pre-emerge phytotoxicity rating (0-100), crop damage, CORN
Answer with the value's number alone.

# SAMPLE_SMILES, VALUE_OBSERVED
rows = [
    ("COc1c(Cl)cc(F)c(-n2c(=O)cc(C(F)(F)F)n(C)c2=O)c1NC(=O)c1cc(F)cc(F)c1", 70),
    ("CCOC(=O)C(=O)Nc1c(OC)c(Cl)cc(F)c1-n1c(=O)cc(C(F)(F)F)n(C)c1=O", 10),
    ("COc1c(Cl)cc(F)c(-n2c(=O)cc(C(F)(F)F)n(C)c2=O)c1N(C(=O)c1ccc([N+](=O)[O-])cc1)C(=O)c1ccc([N+](=O)[O-])cc1", 10),
]

Reported Pre-emerge phytotoxicity rating (0-100), crop damage, CORN of `COc1c(Cl)cc(F)c(-n2c(=O)cc(C(F)(F)F)n(C)c2=O)c1N(C(=O)c1ccc(C(F)(F)F)cc1)C(=O)c1ccc(C(F)(F)F)cc1` : 90

Reported Pre-emerge phytotoxicity rating (0-100), crop damage, CORN of `COc1c(Cl)cc(F)c(-n2c(=O)cc(C(F)(F)F)n(C)c2=O)c1NC(=O)c1ccc(Cl)cc1Cl` : 95
